test: Pharmacokinetics after oral administration of tofacitinib to rats; type: in vivo, Sprague-Dawley rats; settings: male, Sprague-Dawley, rat, plasma; oral 100 mg/kg
Measurement label: Tmax (h)
Write the number in h without appending the unit.

Data point: C[C@@H]1CCN(C(=O)CC#N)C[C@@H]1N(C)c1ncnc2[nH]ccc12 [tofacitinib] ; Tmax = 2.83

====

Experiment: Pharmacokinetics after 1-min intravenous infusion of tofacitinib to rats
Assay type: in vivo, Sprague-Dawley rats
Details: male, Sprague-Dawley, rat, plasma; iv 20 mg/kg; read-out: Vss
Procedure: The pretreatment and surgical procedures for oral and intravenous administration were similar to those described previously. For oral administration, the rats were fasted overnight with free access to water. […] The mobile phase consisted of a 69.5:30.5 (v/v) mixture of 10 mM ammonium acetate buffer (pH 5.0) and acetonitrile, respectively, with a flow rate of 1.0 mL/min. Column effluent was monitored by a UV detector at 287 nm. […]
Measurement label: Vd (L/kg)
State just the number; it will be interpreted in L/kg.

Lab note: C[C@@H]1CCN(C(=O)CC#N)C[C@@H]1N(C)c1ncnc2[nH]ccc12 gave Vd of 0.9

====

experiment: Pharmacokinetics after oral administration of tofacitinib to rats; type: in vivo, Sprague-Dawley rats; settings: male, Sprague-Dawley, rat, plasma; oral 10 mg/kg
Measurement label: Tmax (min)
Report only the number, with the unit min understood.

For record C[C@@H]1CCN(C(=O)CC#N)C[C@@H]1N(C)c1ncnc2[nH]ccc12 [tofacitinib] the listed Tmax is 15.7

====

assay: Pharmacokinetics after 1-min intravenous infusion of tofacitinib to rats; format: in vivo, Sprague-Dawley rats; conditions: male, Sprague-Dawley, rat, plasma; iv 50 mg/kg; read-out: Vss
Measurement label: Vd (L/kg)
Please state the figure in L/kg; there is no need to write the unit.

Just so you know, measured Vd for C[C@@H]1CCN(C(=O)CC#N)C[C@@H]1N(C)c1ncnc2[nH]ccc12 came out at 1.49

====

assay: Gastric and intestinal first-pass effect: intraportal infusion, intraduodenal and intragastric instillation in rats; type: in vivo, Sprague-Dawley rats; details: Sprague-Dawley, rat, plasma, po, 10 mg/kg, intragastric instillation
Measurement label: Tmax (h)
Please reply with the bare figure in h and do not write the unit itself.

Consider C[C@@H]1CCN(C(=O)CC#N)C[C@@H]1N(C)c1ncnc2[nH]ccc12 . Its measured Tmax is 1.06

====

assay: Pharmacokinetics after oral administration of tofacitinib to rats; type: in vivo, Sprague-Dawley rats; details: male, Sprague-Dawley, rat, plasma and urine; oral 50 mg/kg
Measurement label: CL renal

Reported CL renal ( C[C@@H]1CCN(C(=O)CC#N)C[C@@H]1N(C)c1ncnc2[nH]ccc12 ) = 7.61 mL/min/kg

====

assay: Pharmacokinetics after 1-min intravenous infusion of tofacitinib to rats; assay type: in vivo, Sprague-Dawley rats; details: rat, plasma; 1-min iv infusion, 20 mg/kg, male Sprague-Dawley rats
Measurement label: AUC (ng·h/mL)
Report the value in ng·h/mL with no unit label.

Measured AUC, C[C@@H]1CCN(C(=O)CC#N)C[C@@H]1N(C)c1ncnc2[nH]ccc12 : 13500

====

experiment: Pharmacokinetics after 1-min intravenous infusion of tofacitinib to rats; format: in vivo, Sprague-Dawley rats; conditions: rat, plasma; 1-min iv infusion, 10 mg/kg, male Sprague-Dawley rats
Measurement label: AUC (ng·h/mL)
Express your answer in ng·h/mL, writing the number without its unit.

Value of AUC reported for the molecule C[C@@H]1CCN(C(=O)CC#N)C[C@@H]1N(C)c1ncnc2[nH]ccc12 [tofacitinib] is 5700

====

experiment: Tissue distribution after intravenous administration in rats; format: in vivo; conditions: Sprague-Dawley, rat; every tissue except brain, mesentery and fat; 30 min and 2 h after iv 10 mg/kg; read-out: Tissue-to-plasma (T/P) ratio
Measurement label: Kp

Sure, the documented Kp for C[C@@H]1CCN(C(=O)CC#N)C[C@@H]1N(C)c1ncnc2[nH]ccc12 is > 1

====

Assay: Pharmacokinetics after oral administration of tofacitinib to rats
Assay type: in vivo, Sprague-Dawley rats
Details: rat, plasma; oral 20 mg/kg, male Sprague-Dawley rats
Experimental: The pretreatment and surgical procedures for oral and intravenous administration were similar to those described previously. For oral administration, the rats were fasted overnight with free access to water. […] The mobile phase consisted of a 69.5:30.5 (v/v) mixture of 10 mM ammonium acetate buffer (pH 5.0) and acetonitrile, respectively, with a flow rate of 1.0 mL/min. Column effluent was monitored by a UV detector at 287 nm. […]
Measurement label: AUC
Returns: string containing the number followed by the unit.

The compound listed as C[C@@H]1CCN(C(=O)CC#N)C[C@@H]1N(C)c1ncnc2[nH]ccc12 shows AUC equal to 4480 ng·h/mL

====

assay: Hepatic first-pass effect: 30-min intravenous vs intraportal infusion in rats; type: in vivo, Sprague-Dawley rats; details: Sprague-Dawley, rat, plasma; 30-min intraportal infusion, 10 mg/kg (n = 7); read-out: Vss
Measurement label: Vd (L/kg)
Express your answer in L/kg, writing the number without its unit.

Vd recorded for this compound, C[C@@H]1CCN(C(=O)CC#N)C[C@@H]1N(C)c1ncnc2[nH]ccc12 , is 2.55

====

assay: Gastric and intestinal first-pass effect: intraportal infusion, intraduodenal and intragastric instillation in rats; type: in vivo, Sprague-Dawley rats; conditions: Sprague-Dawley, rat, plasma, po, 10 mg/kg, intragastric instillation
Measurement label: AUC (ng·h/mL)
Form entry: value (ng·h/mL) — number only.

The reported value for C[C@@H]1CCN(C(=O)CC#N)C[C@@H]1N(C)c1ncnc2[nH]ccc12 in terms of AUC is 2230

====

assay: Pharmacokinetics after 1-min intravenous infusion of tofacitinib to rats; assay type: in vivo, Sprague-Dawley rats; conditions: male, Sprague-Dawley, rat, plasma; iv 20 mg/kg
Measurement label: CL renal (mL/min/kg)
Report only the number, with the unit mL/min/kg understood.

Short answer for C[C@@H]1CCN(C(=O)CC#N)C[C@@H]1N(C)c1ncnc2[nH]ccc12 : CL renal was 2.8

====

test: Pharmacokinetics after oral administration of tofacitinib to rats; type: in vivo, Sprague-Dawley rats; settings: male, Sprague-Dawley, rat, plasma; oral 10 mg/kg
Measurement label: Cmax (ng/mL)
# unit: ng/mL | format: bare number

The compound listed as C[C@@H]1CCN(C(=O)CC#N)C[C@@H]1N(C)c1ncnc2[nH]ccc12 has a reported Cmax of 1130

====

test: Hepatic first-pass effect: 30-min intravenous vs intraportal infusion in rats; format: in vivo, Sprague-Dawley rats; details: Sprague-Dawley, rat, plasma; 30-min intravenous infusion, 10 mg/kg
Measurement label: CL renal (mL/min/kg)
Write it as a number; the unit mL/min/kg goes unstated.

Reported CL renal for C[C@@H]1CCN(C(=O)CC#N)C[C@@H]1N(C)c1ncnc2[nH]ccc12 was 2.34

====

assay: Pharmacokinetics after oral administration of tofacitinib to rats; type: in vivo, Sprague-Dawley rats; conditions: male, Sprague-Dawley, rat, plasma and urine; oral 100 mg/kg
Measurement label: CL renal
Please answer using a numeric value trailed by its unit.

For this compound ( C[C@@H]1CCN(C(=O)CC#N)C[C@@H]1N(C)c1ncnc2[nH]ccc12 [tofacitinib] ), measured CL renal is 3.37 mL/min/kg

====

assay: Pharmacokinetics after 1-min intravenous infusion of tofacitinib to rats; type: in vivo, Sprague-Dawley rats; conditions: male, Sprague-Dawley, rat, plasma; iv 5 mg/kg
Measurement label: MRT (min)
Quick note: give the figure in min, leave out the unit.

Just so you know, measured MRT for C[C@@H]1CCN(C(=O)CC#N)C[C@@H]1N(C)c1ncnc2[nH]ccc12 came out at 35.2

====

experiment: Hepatic first-pass effect: 30-min intravenous vs intraportal infusion in rats; format: in vivo, Sprague-Dawley rats; conditions: Sprague-Dawley, rat, plasma; 30-min intraportal infusion, 10 mg/kg (n = 7)
Measurement label: MRT (min)
Answer in min, number only, no unit symbol.

Summary for this molecule, C[C@@H]1CCN(C(=O)CC#N)C[C@@H]1N(C)c1ncnc2[nH]ccc12 : MRT is 59.6

====

experiment: Pharmacokinetics after oral administration of tofacitinib to rats; assay type: in vivo, Sprague-Dawley rats; conditions: male, Sprague-Dawley, rat, plasma; oral 50 mg/kg; dose-normalized oral AUC / AUC of 10 mg/kg iv; read-out: F (bioavailability)
Measurement label: bioavailability (%)
Express your answer in %, writing the number without its unit.

bioavailability recorded for this compound, C[C@@H]1CCN(C(=O)CC#N)C[C@@H]1N(C)c1ncnc2[nH]ccc12 , is 69.7

====

experiment: Pharmacokinetics after 1-min intravenous infusion of tofacitinib to rats; type: in vivo, Sprague-Dawley rats; conditions: male, Sprague-Dawley, rat, plasma; iv 10 mg/kg; read-out: Vss
Measurement label: Vd (L/kg)
Number in L/kg, nothing else.

Entry C[C@@H]1CCN(C(=O)CC#N)C[C@@H]1N(C)c1ncnc2[nH]ccc12 [tofacitinib] , Vd reported as 1.21

====

test: Gastric and intestinal first-pass effect: intraportal infusion, intraduodenal and intragastric instillation in rats; assay type: in vivo, Sprague-Dawley rats; settings: Sprague-Dawley, rat, plasma, 10 mg/kg, intraduodenal instillation
Measurement label: AUC

The reported AUC of the compound C[C@@H]1CCN(C(=O)CC#N)C[C@@H]1N(C)c1ncnc2[nH]ccc12 was 2300 ng·h/mL
